Reported protein stability index values for a set of variants
B1: MNAT1 (parent)
chain: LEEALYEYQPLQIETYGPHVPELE

variants of: B1; assay: protein stability index of a GFP-peptide fusion (GPS, HEK-293T) (PSI 1-6); higher = more stable; conditions: c terminus: a fixed tail appended;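 further: lentivirally expressed fusions sorted by FACS into six bins by GFP to DsRed ratio, PSI derived from sequencing read proportions per bin multiplied by bin number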
measured_attribute: protein stability index

• E7A = 2.19
• A4H = 4.59
• P21A = 2.92
• E2D = 3.89
• P10G = 4.24
• E2T = 2.2
• H19L = 2.33
• L1G = 5.15
• V20H = 2.1
• E3K = 2.64
• G17P = 2.69
